This section presents binders with their documented koff values.
Target: T1, Human EREG (Biacore analyte) (human, UniProt O14944 63-108)
T1 construct: also called hEREG; human epiregulin
T1 sequence (O14944 63-108 limits assumed): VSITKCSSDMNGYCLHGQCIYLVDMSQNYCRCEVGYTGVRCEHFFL
Test: SPR (Biacore T100), antibody captured on Protein A, EREG as analyte, single-cycle kinetics
Answer format: numeric, s⁻¹ implied, no suffix.

Some entries whose results are on file:
BINDER	QUANTITATIVE_RESULT
H240-G1d/L53-k (antibody, human IgG1, kappa, V domains shown) VH: QDQLVQSGAEVKKPGASVKVSCKASGFNIKDTYIQWVRQAPGQGLEWMGRIDPLRKQTKYREKFEGRVTITADTSTNTAYMELSSLRSEDTAVYYCVRSGREFDYWGQGTLVTVSS VL: DIQMTQSPSSLSASVGDRVTITCRASQDIHKYIAWYQQKPGQAPRLLIQYTSTLQPGVPSRFSGSGSGTDYTFTISSLQPEDIATYYCLQYDNLRTFGGGTKVEIKR	0.00011
chimeric antibody EP27 (cH-G1/cL-k) (antibody, human IgG1, kappa, V domains shown, mouse EP27 variable regions with human IgG1 (G1) and kappa constant regions; also called chimeric EP27) VH: EDQLQQSGAELVKPGASVKLSCTASGFNIKDTYIQWVKLRPEQGLEWIGRIDPLNGNTKYVPKFQGKATITADTSSNTAYLQLSSLTSEDTAVYYCVRSGTLFDFWGQGTTLTVSS VL: DIQMTQSPSSLSASLGGKVTITCKASQDIHKYIAWYQHKPGKGPRLLIQYTSTLQPGIPSRFSGSGSGRDYSFSISNLEPEDIATYYCLQYDNLRTFGGGTKLEIKR	0.00022
H206-G1d/L73-k (antibody, human IgG1, kappa, V domains shown) VH: QDQLVQSGAEVKNPGASVKVSCKASGFNIKDTYIQWVRQAPGQGLEWMGRIDPLRRQTKYREKFEGRVTITADTSTNTAYMELSSLRSEDTAVYYCVRSGREFDFWGQGTLVTVSS VL: DIQMTQSPSSLSASVGDRVTITCRASQDIHKYIAWYQQKPGQAPRLLIQYTSTLQPGVPSRFSGSGSGTDYTFTISSLQPEDIATYYCLQYEQLRTFGGGTKVEIKR	7.4e-05
H206-G1d/L53-k (antibody, human IgG1, kappa, V domains shown) VH: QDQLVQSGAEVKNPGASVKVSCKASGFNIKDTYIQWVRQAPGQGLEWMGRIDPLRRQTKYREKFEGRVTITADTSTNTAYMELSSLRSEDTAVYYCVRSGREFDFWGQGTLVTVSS VL: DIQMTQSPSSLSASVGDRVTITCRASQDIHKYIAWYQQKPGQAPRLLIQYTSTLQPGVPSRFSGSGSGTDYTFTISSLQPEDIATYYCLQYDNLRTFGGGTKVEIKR	0.00011
H87-G1d/LB-k (antibody, human IgG1, kappa, V domains shown) VH: QDQLVQSGAEVKKPGASVKVSCKASGFNIKDTYIQWVRQAPGQGLEWMGRIDPLTGQTKYQEKFEGRVTITADTSTNTAYMELSSLRSEDTAVYYCVRSGTSFDFWGQGTLVTVSS VL: DIQMTQSPSSLSASVGDRVTITCKASQDIHKYIAWYQQKPGQAPRLLIQYTSTLQPGVPSRFSGSGSGTDYTFTISSLQPEDIATYYCLQYDNLRTFGGGTKVEIKR	0.0002

Now for another entry.
What koff value was documented for this binder, H240-G1d/L73-k (antibody, human IgG1, kappa, V domains shown) VH: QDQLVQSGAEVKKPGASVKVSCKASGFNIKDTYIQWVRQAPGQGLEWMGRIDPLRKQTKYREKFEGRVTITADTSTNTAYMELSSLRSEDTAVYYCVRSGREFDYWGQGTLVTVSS VL: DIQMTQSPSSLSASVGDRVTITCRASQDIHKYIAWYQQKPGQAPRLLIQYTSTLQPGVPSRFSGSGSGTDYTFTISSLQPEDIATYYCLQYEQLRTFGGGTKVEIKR ?
7.7e-05
